This collection of values is drawn from PubChem BioAssay (NCI).

Test system: EKVX NSCLC
test: NCI-60 one-dose screen, 48 h
applied_conditions: 10 µM unless noted
The panel holds about 83,000 compounds, 20% with a hit somewhere; the sample as a whole holds those more often. Calls of active or inactive are those of the source. How the source made its calls: active means growth percent below 10; inactive means the rest.
Choose the fitting class; nothing outside active, inactive is accepted.

// below: answered molecules
Nc1c2c(nc3ccc(Br)cc13)CC(c1ccccc1)CC2=O (stereo not given)
inactive
COC(=O)C(Cc1ccccc1)n1cc(COc2nc(Cl)nc(Nc3ccc(Cl)cc3)n2)nn1 (stereo not given)
inactive
CN(C)c1ccc(-c2ccc(-c3ccc(C(=N)N)c(F)c3)s2)cc1
active
COc1cc(/C=C/c2cc(/C=C/c3ccc(O)c(OC)c3)n(-c3ccc(Cl)cc3)c(=O)n2)ccc1O
inactive

[in] Each molecule tested received a call. Report the one for `COc1cccc(-c2nn(-c3ccccc3)cc2-c2ccnc(NCCCO)c2)c1` .
[out] inactive
